# Target or system: Neuropilin-1 (Homo sapiens, UniProt O14786)
# Sequence (O14786 whole entry, the tested form may be a part): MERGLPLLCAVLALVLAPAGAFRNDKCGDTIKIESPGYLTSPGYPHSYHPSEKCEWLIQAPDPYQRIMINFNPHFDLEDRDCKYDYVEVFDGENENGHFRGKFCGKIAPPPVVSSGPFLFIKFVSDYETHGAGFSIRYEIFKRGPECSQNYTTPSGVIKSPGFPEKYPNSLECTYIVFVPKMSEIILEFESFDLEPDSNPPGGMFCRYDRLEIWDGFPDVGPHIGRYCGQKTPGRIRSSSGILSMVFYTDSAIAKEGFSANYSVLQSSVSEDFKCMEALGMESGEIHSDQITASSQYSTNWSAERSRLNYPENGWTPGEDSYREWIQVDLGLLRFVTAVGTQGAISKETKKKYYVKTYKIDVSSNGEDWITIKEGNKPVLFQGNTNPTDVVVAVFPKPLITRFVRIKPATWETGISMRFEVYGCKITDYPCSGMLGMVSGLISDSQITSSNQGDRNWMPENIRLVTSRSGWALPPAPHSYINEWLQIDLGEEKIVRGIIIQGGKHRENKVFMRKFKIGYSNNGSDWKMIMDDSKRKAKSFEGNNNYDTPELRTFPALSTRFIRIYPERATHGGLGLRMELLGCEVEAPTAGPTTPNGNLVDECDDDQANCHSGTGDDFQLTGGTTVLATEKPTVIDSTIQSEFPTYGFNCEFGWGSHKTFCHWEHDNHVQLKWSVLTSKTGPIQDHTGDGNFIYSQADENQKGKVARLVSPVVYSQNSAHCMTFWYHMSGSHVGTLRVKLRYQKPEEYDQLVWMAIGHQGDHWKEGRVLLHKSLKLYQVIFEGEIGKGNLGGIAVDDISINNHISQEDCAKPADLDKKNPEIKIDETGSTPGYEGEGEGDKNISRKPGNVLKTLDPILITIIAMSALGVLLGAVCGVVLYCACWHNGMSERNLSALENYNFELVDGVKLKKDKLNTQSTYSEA
# Measurement protocol: Inhibition of biotinylated VEGF-A binding to N-terminal His6-tagged recombinant human NRP1-b1 domain expressed in Escherichia coli Rosetta Gami 2 (DE3) pLysS cells after 2 hrs
Property label: IC50 (nM)

>>> result("N=C(N)NCCC[C@H](NC(=O)c1sccc1NS(=O)(=O)c1cc(-c2ccc(CN)cc2)cc2c1OCC2)C(=O)O")
609

---

# Target or system: Neuropilin-1 (Homo sapiens)
# Measurement protocol: Inhibition of biotinylated VEGF-A binding to human NRP1 expressed in human DU145 cells after 2 hrs
# Assay type: cell-based
Property label: IC50 (µM)

>>> result("N=C(N)NCCC[C@H](NC(=O)c1sccc1NS(=O)(=O)c1cc(-c2ccc(CN)cc2)cc2c1OCC2)C(=O)O")
1.6

---

# Target or system: Neuropilin-1 (Homo sapiens)
# Measurement protocol: Binding affinity to N-terminal His6-tagged recombinant human NRP1-b1 domain expressed in Escherichia coli Rosetta Gami 2 (DE3) pLysS cells by SPR method
Reported log10 of Kd values follow for various molecules
Property label: log10 of Kd (log10 of the value in nM)

>>> result("N=C(N)NCCC[C@H](NC(=O)c1sccc1NS(=O)(=O)c1cc(-c2cccc(CN3CCC(C(N)=O)CC3)c2)cc2c1OCC2)C(=O)O")
3.19
>>> result("N=C(N)NCCC[C@H](NC(=O)c1sccc1NS(=O)(=O)c1cc(-c2ccccc2CN2CCC(C(N)=O)CC2)cc2c1OCC2)C(=O)O")
3.31
>>> result("N=C(N)NCCC[C@H](NC(=O)c1sccc1NS(=O)(=O)c1cc(-c2ccc(CN)cc2)cc2c1OCC2)C(=O)O")
3.12
>>> result("CNC(=O)C1CCN(Cc2ccccc2-c2cc3c(c(S(=O)(=O)Nc4ccsc4C(=O)N[C@@H](CCCNC(=N)N)C(=O)O)c2)OCC3)CC1")
3.48
>>> result("N=C(N)NCCC[C@H](NC(=O)c1sccc1NS(=O)(=O)c1cc(-c2cccc(CN3CCC(N4CCOCC4)CC3)c2)cc2c1OCC2)C(=O)O")
3.14
>>> result("CN(C)Cc1cccc(-c2cc3c(c(S(=O)(=O)Nc4ccsc4C(=O)N[C@@H](CCCNC(=N)N)C(=O)O)c2)OCC3)c1")
3.66
>>> result("CNC(=O)C1CCN(Cc2cccc(-c3cc4c(c(S(=O)(=O)Nc5ccsc5C(=O)N[C@@H](CCCNC(=N)N)C(=O)O)c3)OCC4)c2)CC1")
3.12
>>> result("N=C(N)NCCC[C@H](NC(=O)c1sccc1NS(=O)(=O)c1cc(-c2ccccc2CN2CCC(N3CCOCC3)CC2)cc2c1OCC2)C(=O)O")
3.18
>>> result("N=C(N)NCCC[C@H](NC(=O)c1sccc1NS(=O)(=O)c1cc(-c2cccc(CN)c2)cc2c1OCC2)C(=O)O")
3.39
>>> result("N=C(N)NCCC[C@H](NC(=O)c1sccc1NS(=O)(=O)c1cc(-c2cccc(CN3CCCCC3)c2)cc2c1OCC2)C(=O)O")
3.07
>>> result("N#CCC1CCN(Cc2ccccc2-c2cc3c(c(S(=O)(=O)Nc4ccsc4C(=O)N[C@@H](CCCNC(=N)N)C(=O)O)c2)OCC3)CC1")
3.27
>>> result("N=C(N)NCCC[C@H](NC(=O)c1sccc1NS(=O)(=O)c1cc(-c2cccc(CN3CCOCC3)c2)cc2c1OCC2)C(=O)O")
3.58
>>> result("N#CCC1CCN(Cc2cccc(-c3cc4c(c(S(=O)(=O)Nc5ccsc5C(=O)N[C@@H](CCCNC(=N)N)C(=O)O)c3)OCC4)c2)CC1")
3.15
>>> result("N=C(N)NCCC[C@H](NC(=O)c1sccc1NS(=O)(=O)c1cc(-c2ccccc2CN)cc2c1OCC2)C(=O)O")
3.27
>>> result("N=C(N)NCCC[C@H](NC(=O)c1sccc1NS(=O)(=O)c1cc(-c2cccc3c2CNC3)cc2c1OCC2)C(=O)O")
3.39
>>> result("N=C(N)NCCC[C@H](NC(=O)c1sccc1NS(=O)(=O)c1cc(-c2ccc3c(c2)CNC3)cc2c1OCC2)C(=O)O")
3.34
>>> result("N=C(N)NCCC[C@H](NC(=O)c1sccc1NS(=O)(=O)c1cc(-c2ccccc2)cc2c1OCC2)C(=O)O")
4.16
>>> result("N=C(N)NCCC[C@H](NC(=O)c1sccc1NS(=O)(=O)c1cc(-c2ccccc2CN2CCCCC2)cc2c1OCC2)C(=O)O")
3.36
